- experimentalTarget: wild-type EGFR (Homo sapiens)
- Construct: purchased Signalchem
- Sequence (P00533 25-1210): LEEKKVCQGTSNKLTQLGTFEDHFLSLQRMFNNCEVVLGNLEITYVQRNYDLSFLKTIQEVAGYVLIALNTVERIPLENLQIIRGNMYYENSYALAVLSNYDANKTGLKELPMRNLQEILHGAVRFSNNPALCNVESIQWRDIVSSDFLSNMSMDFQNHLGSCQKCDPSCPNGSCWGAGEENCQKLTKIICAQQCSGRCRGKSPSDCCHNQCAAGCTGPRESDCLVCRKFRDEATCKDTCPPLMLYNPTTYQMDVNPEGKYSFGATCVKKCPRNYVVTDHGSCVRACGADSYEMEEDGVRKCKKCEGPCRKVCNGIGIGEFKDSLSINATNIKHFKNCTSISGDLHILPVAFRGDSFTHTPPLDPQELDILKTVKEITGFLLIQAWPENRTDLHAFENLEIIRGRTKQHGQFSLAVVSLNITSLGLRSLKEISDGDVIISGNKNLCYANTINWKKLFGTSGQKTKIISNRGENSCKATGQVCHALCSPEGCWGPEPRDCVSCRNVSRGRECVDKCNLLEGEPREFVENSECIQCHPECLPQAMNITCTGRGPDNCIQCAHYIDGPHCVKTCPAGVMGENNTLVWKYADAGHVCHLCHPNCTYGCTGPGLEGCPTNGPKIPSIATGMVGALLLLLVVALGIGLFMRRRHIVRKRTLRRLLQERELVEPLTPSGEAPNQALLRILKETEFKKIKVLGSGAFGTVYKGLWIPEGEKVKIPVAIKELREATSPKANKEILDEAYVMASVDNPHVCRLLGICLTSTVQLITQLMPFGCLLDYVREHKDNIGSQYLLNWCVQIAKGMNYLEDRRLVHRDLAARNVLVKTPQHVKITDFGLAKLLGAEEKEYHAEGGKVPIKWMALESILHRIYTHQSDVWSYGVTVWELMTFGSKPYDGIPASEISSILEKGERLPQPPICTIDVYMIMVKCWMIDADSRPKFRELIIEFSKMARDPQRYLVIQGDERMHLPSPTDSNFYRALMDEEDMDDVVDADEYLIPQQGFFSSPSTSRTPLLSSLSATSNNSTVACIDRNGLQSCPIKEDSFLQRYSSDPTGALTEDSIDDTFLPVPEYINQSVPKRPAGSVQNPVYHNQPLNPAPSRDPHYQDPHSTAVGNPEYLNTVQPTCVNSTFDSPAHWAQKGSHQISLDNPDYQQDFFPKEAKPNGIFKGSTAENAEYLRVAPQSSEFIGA
- measurementNotes: Enzymology experiment in vitro (HTRF/FRET kinase activity), wild-type EGFR
- Type: biochemical
- conditionNotes: HTRF KinEASE-TK, read-out: EGFR (WT) IC50
propertyName: pIC50
Numbers only, as −log10 of the molar value.

- compound: "COc1nc(N2CCOCC2)c(-c2cn(C)nc2C)cc1Nc1ncc(Br)c(Nc2ccc3nccnc3c2P(C)(C)=O)n1 [compound 37]"
  propertyName: "pIC50"
  testValue: 6.57

I need pIC50 for every entry listed below, if you could help.
1. COc1cc(N2CCC3(CCN(CC(F)F)CC3)CC2)c(-c2cnn(C)c2)cc1Nc1ncc(Br)c(Nc2ccc3nccnc3c2P(C)(C)=O)n1 [compound 149]
2. COc1cc(N2CCC(N3CCN(C)CC3)C(F)C2)c(-c2cnn(C)c2)cc1Nc1ncc(Br)c(Nc2ccc3nccnc3c2P(C)(C)=O)n1 (stereo not drawn) [compound 189]

1: 7.11; 2: 8.97

State recorded pIC50 for all listed compounds.
1. COc1cc(N2CCOC(C)(C)C2)c(-c2cnn(C)c2)cc1Nc1ncc(Br)c(Nc2ccc3nccnc3c2P(C)(C)=O)n1 [compound 120]
2. COc1cc(N2CCOCC2)c(-c2cnn(C)c2)cc1Nc1ncc(Br)c(Nc2ccc3nccnc3c2P(C)(C)=O)n1 [Compound 1]

8.01
9.03

What value of measured pIC50 is listed for COc1ncc(-c2cnn(C)c2)cc1Nc1ncc(Br)c(Nc2ccc3nccnc3c2P(C)(C)=O)n1 [compound 30] ?
7.25

====

Give GI50 for every item shown.
- experimentalTarget: Ba/F3 De119/T790M/C797S EGFR triple mutant cell line (Homo sapiens, UniProt P00533, T790M/C797S, cells depend on it, form not given)
- Sequence (P00533 with tags, fused parts or gaps DEL746-750/T790M/C797S, form open): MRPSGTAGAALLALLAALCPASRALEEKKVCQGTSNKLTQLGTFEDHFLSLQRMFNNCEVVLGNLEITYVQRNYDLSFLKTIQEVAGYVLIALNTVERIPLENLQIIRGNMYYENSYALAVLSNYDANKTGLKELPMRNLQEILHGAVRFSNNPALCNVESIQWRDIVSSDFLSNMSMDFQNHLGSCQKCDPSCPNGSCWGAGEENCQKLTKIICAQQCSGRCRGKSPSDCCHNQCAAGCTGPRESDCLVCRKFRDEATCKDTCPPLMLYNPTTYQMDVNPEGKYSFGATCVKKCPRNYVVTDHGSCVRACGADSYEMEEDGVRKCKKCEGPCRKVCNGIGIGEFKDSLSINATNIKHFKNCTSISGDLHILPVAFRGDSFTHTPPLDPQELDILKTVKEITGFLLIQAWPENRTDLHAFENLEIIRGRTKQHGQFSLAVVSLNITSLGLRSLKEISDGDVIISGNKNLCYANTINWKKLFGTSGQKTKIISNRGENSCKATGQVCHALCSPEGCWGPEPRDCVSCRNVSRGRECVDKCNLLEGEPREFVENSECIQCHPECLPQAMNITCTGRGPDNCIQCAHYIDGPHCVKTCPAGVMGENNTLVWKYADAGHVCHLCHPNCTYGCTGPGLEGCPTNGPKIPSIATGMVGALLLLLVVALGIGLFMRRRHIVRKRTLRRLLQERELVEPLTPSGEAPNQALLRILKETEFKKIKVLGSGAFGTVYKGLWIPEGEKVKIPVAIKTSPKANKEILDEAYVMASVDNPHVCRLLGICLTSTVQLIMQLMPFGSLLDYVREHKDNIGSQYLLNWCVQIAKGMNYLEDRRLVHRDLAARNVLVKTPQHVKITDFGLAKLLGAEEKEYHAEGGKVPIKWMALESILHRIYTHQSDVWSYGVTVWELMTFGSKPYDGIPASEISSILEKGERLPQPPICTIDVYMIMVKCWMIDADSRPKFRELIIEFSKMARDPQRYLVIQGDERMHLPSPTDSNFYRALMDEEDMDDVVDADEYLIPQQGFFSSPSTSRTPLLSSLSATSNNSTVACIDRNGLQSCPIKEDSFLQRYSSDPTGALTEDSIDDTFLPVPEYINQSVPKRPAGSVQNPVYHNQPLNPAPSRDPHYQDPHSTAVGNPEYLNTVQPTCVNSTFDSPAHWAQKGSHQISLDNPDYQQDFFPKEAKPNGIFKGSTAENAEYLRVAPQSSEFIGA
- measurementNotes: Cell proliferation inhibition experiment (CellTiter-Glo), Ba/F3 De119/T790M/C797S
- Assay type: cell-based
- conditionNotes: Ba/F3 Del19/T790M/C797S EGFR triple mutant cells, 72 hours, Cell Titer-Glo; read-out: Ba/F3 (Del19/T790M/C797S) IC50
Numbers only, in nM.

Would you please look over these solved cases?
- molecule: "COc1cc(N2CCN(C3CC3)CC2)c(-c2cnn(C)c2)cc1Nc1ncc(Br)c(Nc2ccc3nccnc3c2P(C)(C)=O)n1 [compound 102]"
  testValue: 0.76
- molecule: "Cn1cc(-c2cc3c(c(Nc4ncc(Br)c(Nc5ccc6nccnc6c5P(C)(C)=O)n4)c2)OCC3)cn1 [compound 39]"
  testValue: 4.07
- molecule: "COc1cc(N2CCOC(CO)C2)c(-c2cnn(C)c2)cc1Nc1ncc(Br)c(Nc2ccc3nccnc3c2P(C)(C)=O)n1 (centres unmarked) [compound 115]"
  testValue: 6.53
- molecule: "COc1cc(C(=O)N(C)C)c(-c2cnn(C)c2)cc1Nc1ncc(Br)c(Nc2ccc3nccnc3c2P(C)(C)=O)n1 [compound 40]"
  testValue: 1130
- molecule: "COc1cc(N2CCC(N(C)C)C2)c(-c2cnn(C)c2)cc1Nc1ncc(Br)c(Nc2ccc3nccnc3c2P(C)(C)=O)n1 (centres unmarked) [compound 10]"
  testValue: 6.06

State the recorded GI50 for every item in the following list.
1. COc1cc(N2CCC(C)(OC)CC2)c(-c2cnn(C)c2)cc1Nc1ncc(Cl)c(Nc2ccc3nccnc3c2P(C)(C)=O)n1 [compound 239]
2. COc1cc(N2CCC(N3CC[C@H](OC)[C@H](F)C3)CC2)c(-c2cnn(C)c2)cc1Nc1ncc(Br)c(Nc2ccc3nccnc3c2P(C)(C)=O)n1 [compound 185]
3. COc1cc(N2CCC3(CCN(CCF)CC3)CC2)c(-c2cnn(C)c2F)cc1Nc1ncc(Br)c(Nc2ccc3nccnc3c2P(C)(C)=O)n1 [compound 231]
4. COC[C@@H]1CN(c2cc(OC)c(Nc3ncc(Br)c(Nc4ccc5nccnc5c4P(C)(C)=O)n3)cc2-c2cnn(C)c2)CCO1 [compound 127]
5. COC[C@H]1CN(c2cc(OC)c(Nc3ncc(Br)c(Nc4ccc5nccnc5c4P(C)(C)=O)n3)cc2-c2cnn(C)c2)CCO1 [compound 152]
6. [2H]C1([2H])OC([2H])([2H])C([2H])([2H])N(c2cc(OC)c(Nc3ncc(C)c(Nc4ccc5nccnc5c4P(C)(C)=O)n3)cc2-c2cnn(C)c2)C1([2H])[2H] [compound 141]

1. 2.1
2. 1.77
3. 1.08
4. 0.59
5. 1.06
6. 2.26

The following molecules each have a reported value; give each one's GI50.
1. COc1cnc(-c2cnn(C)c2)cc1Nc1ncc(C)c(Nc2ccc3nccnc3c2P(C)(C)=O)n1 [compound 53]
2. COc1cc(N2CCOCC2)c(-c2cnn(C)c2)cc1Nc1ncc(Br)c(Nc2ccccc2NS(=O)(=O)C2CC2)n1 [compound 125]
3. COc1cc(N2CCC3CCN(CCF)C3C2)c(-c2cnn(C)c2)cc1Nc1ncc(Br)c(Nc2ccc3nccnc3c2P(C)(C)=O)n1 (centres unmarked) [compound 205]
4. COc1cc(N2CCC3CCN(CCOC(C)C)C3C2)c(-c2cnn(C)c2)cc1Nc1ncc(Br)c(Nc2ccc3nccnc3c2P(C)(C)=O)n1 (centres unmarked) [compound 206]
5. COc1cc(N2CCC3(CCN(CC(F)(F)F)CC3)CC2)c(-c2cnn(C)c2)cc1Nc1ncc(Br)c(Nc2ccc3nccnc3c2P(C)(C)=O)n1 [compound 245]
6. COc1cc(N2CCC(N3CCOCC3)CC2)c(-c2cnn(C)c2)cc1Nc1ncc(Br)c(Nc2ccc3nccnc3c2P(C)(C)=O)n1 [compound 210]

62.2
5.87
3.2
7.62
5.35
4.42

Required: GI50, one value per molecule below.
1. CCN1CCC2(CC1)CCN(c1cc(OC)c(Nc3ncc(Br)c(Nc4ccc5nccnc5c4P(C)(C)=O)n3)cc1-c1cnn(C)c1)CC2 [compound 226]
2. COc1cc(N2CCO[C@H](C)C2)c(-c2cnn(C)c2)cc1Nc1ncc(Br)c(Nc2ccc3nccnc3c2P(C)(C)=O)n1 [compound 169]
3. COc1cc(N2CCN(S(C)(=O)=O)CC2)c(-c2cnn(C)c2)cc1Nc1ncc(Br)c(Nc2ccc3nccnc3c2P(C)(C)=O)n1 [compound 110]
4. COc1cc(S(C)(=O)=O)c(-c2cnn(C)c2)cc1Nc1ncc(Br)c(Nc2ccc3nccnc3c2P(C)(C)=O)n1 [compound 44]
5. COc1cc(N2C[C@@H]3C[C@H]2CO3)c(-c2cnn(C)c2)cc1Nc1ncc(Br)c(Nc2ccc3nccnc3c2P(C)(C)=O)n1 [compound 107]
6. COc1cc(N2CCOCC2)c(-c2cnn(C)c2)cc1Nc1ncc(Br)c(Nc2ccccc2NS(C)(=O)=O)n1 [Compound 80]

1.55
2.36
3.7
93.5
11.2
5.37

====

- experimentalTarget: Ba/F3 De119/T790M/C797S EGFR triple mutant cell line (Homo sapiens, UniProt P00533, T790M/C797S, cells depend on it, form not given)
- measurementNotes: Cell proliferation inhibition experiment (CellTiter-Glo), Ba/F3 De119/T790M/C797S
- Type: cell-based
- conditionNotes: Ba/F3 Del19/T790M/C797S EGFR triple mutant cells, 72 hours, Cell Titer-Glo; read-out: Ba/F3 (Del19/T790M/C797S) IC50
propertyName: log10 of GI50 (log10 of the value in nM)
Recall that a logarithmic scale is used here: each number is log10 of GI50 in nM.

Observe how each entry below is paired with its result.
- compound: "COc1cc(N2CCC3(CCN(CC4(F)CC4)CC3)CC2)c(-c2cnn(C)c2)cc1Nc1ncc(Br)c(Nc2ccc3nccnc3c2P(C)(C)=O)n1"
  testValue: 0.13
- compound: "COc1cc(N2CC(C)OC(C)C2)c(-c2cnn(C)c2)cc1Nc1ncc(Br)c(Nc2ccc3nccnc3c2P(C)(C)=O)n1 (single isomer, unassigned) [155b]"
  testValue: 0.21
- compound: "COc1cc(N2CCOCC2)c(-c2cnn(C)c2)cc1Nc1ncc(C)c(Nc2ccc3nccnc3c2P(C)(C)=O)n1"
  testValue: 0.38
- compound: "COc1cc(N2CCC(OCCN(C)C)CC2)c(-c2cnn(C)c2)cc1Nc1ncc(Br)c(Nc2ccc3nccnc3c2P(C)(C)=O)n1"
  testValue: 0.63

Please give log10 of GI50 for each item listed below.
1. COc1cc(N2CCN3CCCC3C2)c(-c2cnn(C)c2)cc1Nc1ncc(Br)c(Nc2ccc3nccnc3c2P(C)(C)=O)n1 (stereo not shown)
2. COc1cc(N2CCN(C3(C)COC3)CC2)c(-c2cnn(C)c2)cc1Nc1ncc(Br)c(Nc2ccc3nccnc3c2P(C)(C)=O)n1
3. COc1cc(N2CCC3(CCN(CCF)CC3)CC2)c(-c2cnn(C)c2)cc1Nc1ncc(Br)c(Nc2ccc3ncccc3c2P(C)(C)=O)n1
4. COc1cc(N2CCOC(COC(C)C)C2)c(-c2cnn(C)c2)cc1Nc1ncc(Br)c(Nc2ccc3nccnc3c2P(C)(C)=O)n1 (stereo not shown)
5. COc1cc(N2CCC(N3CCOC(C)C3)CC2)c(-c2cnn(C)c2)cc1Nc1ncc(Br)c(Nc2ccc3nccnc3c2P(C)(C)=O)n1 (racemic)
6. COc1cc(N2CCC3(CCOC3)C2)c(-c2cnn(C)c2)cc1Nc1ncc(Br)c(Nc2ccc3nccnc3c2P(C)(C)=O)n1 (stereo not shown)

[0.00, 0.36, 0.26, 0.23, -0.15, 1.03]
